The measured values listed here are drawn from PubChem BioAssay (Tox21).

- Target Or Test System: Cytochrome P450 2D6 (Homo sapiens)
- Measurement Description: Cytochrome P450 Family 2 Subfamily D Member 6 (CYP2D6) small molecule antagonists: luciferase reporter qHTS assay (AID 1671196); further: nearly all actives have a fitted effect of over 50% in size
- Conditions: P450-Glo CYP2D6 enzyme assay, luciferin luminescence, 1 h; series mostly up to 115 µM
Inconclusive results are not listed. Activity calls are given as the source filed them. The call rests on the fitted dose curve; in most records, active means well fitted inhibition curve with a large enough effect in the repeat runs; inconclusive means weak or mixed curves; inactive means no such curve, though single readings can be large or run the other way.
// allowed return values: label 1 (active), label 0 (inactive)

These recorded examples may help you get a feel for the data.
Compound | Classification
O=C1c2cccc(O)c2C(=O)c2c(O)cccc21 | label 0
CC(=O)c1ccccn1 | label 0
CCCC(=O)O | label 0
O=C(O)c1ccccc1Nc1cccc(C(F)(F)F)c1 | label 0
CCC(C)OC(=O)c1ccc(O)cc1 (stereo not given) | label 1
C=C(C)C1CC=C(C)CC1 (stereo not given) | label 0
C[C@]12CCC(=O)C=C1CC[C@@H]1[C@@H]2C(=O)C[C@@]2(C)[C@H]1CC[C@]2(O)C(=O)CO | label 0
OC(CCl)CCl | label 0

Exercise: Dear colleague, could you share the recorded outcome for CC(=O)CC/C=C(\C)CCC=C(C)C when you have a moment?
Key: label 0

Exercise: Dear colleague, could you share the recorded outcome for c1ccncc1 when you have a moment?
Key: label 0

Exercise: Dear colleague, could you share the recorded outcome for O=S(=O)(O)c1ccc(O)cc1 when you have a moment?
Key: label 0
